Test system: TAZ nuclear translocation in SW1990 cells
experimental.protocol: TAZ Nuclear Translocation Assay
Assay type: cell-based
measurement.conditions: Homo sapiens, 4 hours
measurement.name: EC50 (nM)

Use these answered entries as a reference point.
# molecule, EC50 [nM]
measured = [
    ("c1ccc(Cc2cc3c(N4CCC5(CCNC5)CC4)nc(-c4ccncc4)nc3cn2)cc1", 240),
    ("Cc1[nH]ncc1-c1nc(N2CCC3(CC2)CCN([C@H]2CC[C@@H]2O)C3)c2ccncc2n1 (single isomer, unassigned)", 2100),
    ("Clc1cncc2nc(-c3ccncc3)nc(N3CCC4(CCNC4)CC3)c12", 1900),
]

(I) Cc1n[nH]cc1-c1nc(N2CCC3(CCN(CC(C)(C)O)C3)CC2)c2ccncc2n1
(II) c1cc(-c2nc(N3CCC4(CC3)CCN([C@H]3CCOC3)C4)c3ccncc3n2)ccn1 (single isomer, unassigned)
Consider entries I and II . Which has the numerically lower EC50? Answer with the label corresponding to your selection.
I
